// reported cytotoxicity at 70.5 h for each item listed
run-description: Human HepG2 cell viability assay in 384 well format
Type: toxicity, cell-based
Set-up: dose 125 nL, time 70.5 hour; concentration not given beside the values
test-conditions: HepG2 cells, read-out: Inhibition
Answer in %, number only, no unit symbol.

INSERT INTO results (compound, experimental_endpoint, units_of_measure, assay_value) VALUES
  ('c1ncc(CN2CC(Cc3nccc4cc[nH]c34)C2)cn1', 'cytotoxicity at 70.5 h', '%', -1.22);

Please report the recorded cytotoxicity at 70.5 h for O=C(CN1CCCC1c1noc(C2CC2)n1)N1CCc2ccccc21 (stereo unspecified) .
-7.43

I would be grateful if you could share the reported cytotoxicity at 70.5 h for COCCN1CCC(CNC(=O)C2(C#N)CCCCC2)CC1 .
-8.47

Report cytotoxicity at 70.5 h for CC(=O)c1cccc(C(=O)N2C[C@@H](CN3CCCCCC3)[C@@H](CO)C2)c1 please.
-5.31

# query: cytotoxicity at 70.5 h of entry Fc1cccc(-c2noc3c2CN(Cc2cncn2C2CC2)CC3)c1
-11.3

So what does the record say about cytotoxicity at 70.5 h for Cc1ccc(-c2nc(CN3CCn4c(nnc4C4CC4)C3)cs2)o1 ?
14.8
